All values here come from ChEMBL document CHEMBL2203123.

# METHOD_SUMMARY: Genotoxicity against Salmonella typhimurium TA1535/pSK1002 assessed as induction ratio at 1.25 mg/ml by umuC assay in absence of S9 fraction
# Format: toxicity, organism-based
# SETUP_CONDITIONS: salmonella enterica subsp. enterica serovar typhimurium, Salmonella typhimurium TA1535/pSK1002 without S9 fraction
Record form. Attribute: fold induction at 1.25 mg/ml. Fill in for each entry.
Would you mind answering with just the numeric figure?

Short answer for Cn1nnnc1SCC(=O)N/N=C/c1ccccc1F : fold induction at 1.25 mg/ml was 1.02

Short answer for Cn1nnnc1SCC(=O)N/N=C/c1ccccc1[N+](=O)[O-] : fold induction at 1.25 mg/ml was 1.51

Short answer for CN(C)c1ccc(/C=N/NC(=O)CSc2nnnn2C)cc1 : fold induction at 1.25 mg/ml was 1.13

Short answer for Cn1nnnc1SCC(=O)N/N=C/c1ccc(O)cc1 : fold induction at 1.25 mg/ml was 0.99

Short answer for COc1ccc(/C=N/NC(=O)CSc2nnnn2C)cc1 : fold induction at 1.25 mg/ml was 1.12
